Target: T1, MPDZ_12, O75970
T1 sequence (O75970 1857-1958, limits assumed, looked up): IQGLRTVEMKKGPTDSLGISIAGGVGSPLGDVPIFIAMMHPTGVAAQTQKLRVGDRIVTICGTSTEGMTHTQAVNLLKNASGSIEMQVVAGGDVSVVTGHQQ
Test: holdup assay
Parameters: key: below the threshold = too weak to quantify, mostly under pKd 3.1 to 4
Conditions: plain residues with an end cap or a label only (N-terminal biotin on a linker: ahx)
measured parameter: pKd

| binder | measured |
| --- | --- |
| TESNLQTSSC [CGN, Q9P2M7] | below the threshold |
| TEAKLTETNA [MYO18A, Q92614] | below the threshold |
| EKQAKGDTEF [CACYBP, Q9HB71] | below the threshold |
| QPRTWLQSPV [RTKN, Q9BST9] | below the threshold |
| QNTDDVQTSF [ACE2, Q9BYF1] | below the threshold |
| APSRKLNTEI [TIAM1, Q13009] | below the threshold |
| HTHSYIETHV [CNKSR2, Q8WXI2] | below the threshold |
| QDEKVKESYV [ABCA1, O95477] | below the threshold |
| TQKFRASTAL [FRMPD1, Q5SYB0] | below the threshold |
